# SYSTEM UNDER TEST: NMDA receptor glycine site (Rattus norvegicus, UniProt P35439)
# Construct: fresh brain tissue including cerebral cortex and hippocampus from male Sprague Dawley rats was homogenized; tissue Analytical Biological Services Inc; host or cells: rat brain membranes (cerebral cortex and hippocampus, male Sprague Dawley rats)
# ASSAY COMMENT: Test A: Inhibition of binding of [3H]-MDL105,519 to brain membranes
pKi: −log10 of the molar value.
Give fulfilled when the value for pKi is at least 6. Give not fulfilled when it is less.

>  <MOLECULE>
CC(c1cccc[n+]1[O-])n1nc(O)c2[nH]c3cc(Cl)ccc3c(=O)c2c1=O (racemic)

>  <SYSTEM UNDER TEST>
NMDA receptor glycine site (Rattus norvegicus, UniProt P35439)

>  <CLASS LABEL>
not fulfilled

$$$$
>  <MOLECULE>
CC(c1cc[n+]([O-])cc1)n1[nH]c(=O)c2nc3cc(Cl)ccc3c(O)c2c1=O (racemic)

>  <SYSTEM UNDER TEST>
NMDA receptor glycine site (Rattus norvegicus, UniProt P35439)

>  <CLASS LABEL>
not fulfilled

$$$$
>  <MOLECULE>
Cc1cccnc1C(C)n1nc(O)c2[nH]c3cc(Cl)ccc3c(=O)c2c1=O (racemic)

>  <SYSTEM UNDER TEST>
NMDA receptor glycine site (Rattus norvegicus, UniProt P35439)

>  <CLASS LABEL>
not fulfilled

$$$$
>  <MOLECULE>
Cc1cc(C(C)n2nc(O)c3[nH]c4cc(Cl)ccc4c(=O)c3c2=O)ccn1 (racemic) [Ex. 8, methanesulfonate]

>  <SYSTEM UNDER TEST>
NMDA receptor glycine site (Rattus norvegicus, UniProt P35439)

>  <CLASS LABEL>
fulfilled

$$$$

---

# SYSTEM UNDER TEST: NMDA receptor glycine site (Rattus norvegicus)
# Construct: fresh brain tissue including cerebral cortex and hippocampus from male Sprague Dawley rats was homogenized; tissue Analytical Biological Services Inc; host or cells: rat brain membranes (cerebral cortex and hippocampus, male Sprague Dawley rats)
# ASSAY COMMENT: Test A: Inhibition of binding of [3H]-MDL105,519 to brain membranes
# APPLIED CONDITIONS: inhibition of [3H]-MDL105,519 binding to brain membranes; bound in μM
# Description: Test A: Inhibition of Binding of [^3H]-MDL105,519: Binding of compounds to the NMDA receptor glycine site may be assessed by measuring the ability of test compounds to inhibit the binding of tritiated MDL105,519 to brain membranes bearing the receptor. […] [^3H]MDL105,519 (72 Ci/mmol) was purchased from Amersham. […] Non specific binding was determined by using 100 μM of unlabeled MDL105,519. […]
Counter-ions that a name gives are not always drawn.

>  <MOLECULE>
O=c1[nH]n(C(c2ccccn2)C2CCCC2)c(=O)c2c(O)c3ccc(Cl)cc3nc12 (racemic) [Ex. 3, hydrochloride]

>  <Ki>
> 10 µM

$$$$

Data origin, for the record: patent US6946463B2
